# ASSAY_REMARKS: small-molecule microarray binders of probe aShh, primary screen, biochemical, biotinylated probe, 635/667 nm fluorescence (AID 1114);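 also: probe is biotin-labelled aShh protein from a stem cell growth factor screen; measures binding of labelled protein to compounds printed on the slide; score merges feature fluorescence at 667 nm with signal-to-noise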
# ASSAY_CONDITIONS: higher = more signal
METRIC: composite z-score
Response field accepts a number only; no unit should be typed.

QUERY: Item under review: CC(C)OC(=O)CC(=O)CC(O)c1ccc(C#N)cc1 (stereo not given) . Reported composite z-score?
RESULT: -0.156

QUERY: Fill in: composite z-score of O=C1O[C@H](c2ccccc2)[C@H](c2ccccc2)N2[C@H]1[C@@H](C(=O)O)[C@]1(C(=O)Nc3ccc(C#CC4=CCCCC4)cc31)[C@H]2c1ccc(OCCO)cc1 is ___
RESULT: -0.304

QUERY: Need composite z-score, item C[C@H]1NC(=O)[C@H](Cc2ccccc2)NC(=O)[C@@]23C(=O)N[C@@H](Cc4ccccc4)C2[C@H](C)[C@@]2(C)O[C@H]2C3/C=C/C/C=C\CNC1=O (stereo not given in full)
RESULT: -0.324

QUERY: Name the recorded composite z-score for [N-]=[N+]=Nc1ccccc1C[C@]1(C(=O)NCCN2CCOCC2)N=C(c2ccc(OCCCO)cc2)O[C@H]1c1ccccc1 .
RESULT: 0.123

QUERY: Fill in: composite z-score of CC(C)Cc1ccc(CN2CC[C@@H](NS(=O)(=O)c3ccccc3)C2)cc1 is ___
RESULT: -0.455

QUERY: Value lookup for composite z-score; key = C=C[C@H](COC(C)=O)N(Cc1ccc(OC(C)=O)c(OC)c1)S(=O)(=O)c1ccc(Br)cc1
RESULT: -0.291

QUERY: Give the measured composite z-score of O=C1N(CCS(=O)(=O)c2ccccc2)c2ccccc2C[C@@]12COC(c1ccc(OCCCO)cc1)=N2 .
RESULT: 0.0124

QUERY: Could you share which composite z-score value was measured for C=CCC(OC(C)=O)[C@@H]1[C@@H](N(Cc2cc3ccccc3o2)C(=O)c2ccc(C)cc2)c2cc(OCCCO)ccc2N1C(=O)c1ccc2ccccc2c1 (stereo not given in full) ?
RESULT: 0.313

QUERY: Suppose we examine the compound Cc1ccc(S[C@]2(C(=O)NCC(C)C)CC(=O)N(Cc3ccccc3)[C@@H]2c2ccc(CO)cc2I)cc1 ; what composite z-score value has been reported?
RESULT: -0.196

QUERY: Look at this compound and give its reported composite z-score. Cc1ccc([C@H]2C(C(=O)O)=C[C@@H](C)N2S(=O)(=O)c2ccc(C)cc2)cc1
RESULT: 0.0062

QUERY: Fill blank: measured composite z-score of the compound CCCCCCCCCCC(O)C1C=CC2C(=O)N(Cc3ccccc3)C(=O)C2N1n1cnnc1 (stereo not given) is ____.
RESULT: 0.251

QUERY: Which value of composite z-score has been reported for COc1ccc([Si](C)(C)[C@H]2[C@H](CC(=O)N(CCO)Cc3ccccc3)O[C@@]3(C(=O)N(Cc4cccc(N5CCC5=O)c4)c4ccccc43)[C@@H]2C)cc1 in the records?
RESULT: -0.0793

QUERY: For O=C1O[C@@H](c2ccccc2)[C@@H](c2ccccc2)N2[C@@H](c3ccc(OCCO)cc3)[C@]3(C(=O)Nc4ccccc43)[C@@H](C(=O)Nc3nc4ccccc4s3)[C@H]12 , what is its reported composite z-score?
RESULT: 0.171

QUERY: What value of composite z-score has been recorded for this entry: C=CC[C@@H](OC(=O)Nc1ccc(OC)cc1)c1ccc(O)c2ccccc12
RESULT: -0.154

QUERY: Item CCCCCN1CC=CC23O[C@@H]4C=CCOC(=O)[C@@H]4[C@H]2C(=O)N(CCCO)[C@@H]3C1=O (stereo not given in full) has what recorded composite z-score?
RESULT: -0.0709
